Assay: FIH study 67856633LYM1001 plasma pharmacokinetics
Type: in vivo, human
Details: human, plasma, oral, 100 mg, Cycle 1 Day 1, 50 mg capsule, cohort 2 × 50 mg; median; read-out: Tmax
Property: Tmax (h)
Lab book: enter the figure in h, no units written.

Provide measured Tmax value, entry: O=C(Nc1ccnc(C(F)(F)F)c1)c1cnn(-c2cccc3c(=O)[nH]ccc23)c1C(F)(F)F 4

###

Assay: Single oral dose plasma PK in fasted dogs
Format: in vivo, dog
Details: male, beagle, dog, plasma, po, 20 mg/kg, 3M, 20 mg/kg PO, 0.5% HPMC suspension, Study 4
Property: Tmax (h)
All answers are understood in h, so give the number only.

Dear colleague, please send me the reported Tmax for O=C(Nc1ccnc(C(F)(F)F)c1)c1cnn(-c2cccc3c(=O)[nH]ccc23)c1C(F)(F)F when you can. 16.7

###

Assay: FIH study 67856633LYM1001 plasma pharmacokinetics
Format: in vivo, human
Details: human, plasma, oral, 200 mg, Cycle 2 Day 1, 200 mg capsule, cohort 200 mg; read-out: AUCτ
Property: AUC (µg·h/mL)
Write down the numeric answer in µg·h/mL and omit the unit.

Query AUC for O=C(Nc1ccnc(C(F)(F)F)c1)c1cnn(-c2cccc3c(=O)[nH]ccc23)c1C(F)(F)F 453

###

Experiment: 14-day oral toxicity study toxicokinetics in Sprague-Dawley rats
Assay type: in vivo
Conditions: male, rat, plasma, 30 mg/kg/day, male, Day 13, 30 mg/kg/day, range
Property: Tmax (h)
Hi! Could you send only the number? It should be in h, unit omitted.

Using known records, supply Tmax for O=C(Nc1ccnc(C(F)(F)F)c1)c1cnn(-c2cccc3c(=O)[nH]ccc23)c1C(F)(F)F 2

###

Assay: FIH study 67856633LYM1001 plasma pharmacokinetics
Type: in vivo, human
Conditions: human, plasma, oral, 200 mg, Cycle 1 Day 1, 200 mg capsule, cohort 200 mg; median; read-out: Tmax
Source text: The study consists of a dose escalation phase (Part 1), to determine the recommended Phase 2 dose(s) (RP2D[s]), followed by an expansion phase at the RP2D(s) (Part 2). The dose escalation phase is supported using an adaptive dose escalation strategy guided by the modified continual reassessment method (mCRM) based on a Bayesian Logistic Regression Model (BLRM) with escalation with overdose control (EWOC) principle. […]
Property: Tmax

Report Tmax, nothing else, for this molecule: O=C(Nc1ccnc(C(F)(F)F)c1)c1cnn(-c2cccc3c(=O)[nH]ccc23)c1C(F)(F)F [Compound A] 4 h

###

Experiment: Serum concentration after 28 days of oral dosing in male OCI-LY3 tumor-bearing NSG mice
Format: in vivo
Conditions: mouse, 100 mg/kg BID PO 28 days, 0.25 h post last dose, mean
Property: concentration at 0.25 h (ng/mL)
Numbers only; they are read as ng/mL.

Note concentration at 0.25 h for the molecule shown: O=C(Nc1ccnc(C(F)(F)F)c1)c1cnn(-c2cccc3c(=O)[nH]ccc23)c1C(F)(F)F 16500

###

Assay: Single oral dose plasma PK in fasted dogs
Assay type: in vivo, dog
Settings: male, beagle, dog, plasma, po, 20 mg/kg, 3M, 20 mg/kg PO, 0.5% HPMC suspension, Study 2
Property: Tmax (h)
Numeric answer only, unit h assumed.

Tell me Tmax reported for O=C(Nc1ccnc(C(F)(F)F)c1)c1cnn(-c2cccc3c(=O)[nH]ccc23)c1C(F)(F)F 16.7

###

Experiment: Single oral dose plasma PK in fasted dogs
Assay type: in vivo, dog
Settings: male, beagle, dog, plasma, po, 20 mg/kg, 3M, 20 mg/kg PO, -ZAF salt nanosuspension (HPMC:DOSS suspension), Study 5
Property: AUC(0-inf) (ng·h/mL)
I only need the number, in ng·h/mL, no unit after it.

Retrieve AUC(0-inf) measured for O=C(Nc1ccnc(C(F)(F)F)c1)c1cnn(-c2cccc3c(=O)[nH]ccc23)c1C(F)(F)F and print it. 87000

###

Test: Serum concentration after 28 days of oral dosing in male OCI-LY3 tumor-bearing NSG mice
Type: in vivo
Conditions: mouse, 1 mg/kg BID PO 28 days, 0.25 h post last dose, mean
Property: concentration at 0.25 h (ng/mL)
Report the value in ng/mL with no unit label.

Provide concentration at 0.25 h value for the following compound: O=C(Nc1ccnc(C(F)(F)F)c1)c1cnn(-c2cccc3c(=O)[nH]ccc23)c1C(F)(F)F 323

###

Test: FIH study 67856633LYM1001 plasma pharmacokinetics
Assay type: in vivo, human
Conditions: human, plasma, oral, Cycle 2 Day 1, cohort 8 × 50 mg > 6 × 50 mg, with Subject 100070 data included; read-out: mean Cmax
Text: The study consists of a dose escalation phase (Part 1), to determine the recommended Phase 2 dose(s) (RP2D[s]), followed by an expansion phase at the RP2D(s) (Part 2). The dose escalation phase is supported using an adaptive dose escalation strategy guided by the modified continual reassessment method (mCRM) based on a Bayesian Logistic Regression Model (BLRM) with escalation with overdose control (EWOC) principle. […]
Property: Cmax (µg/mL)
A number alone suffices; assume µg/mL.

Give the reported Cmax for this compound. O=C(Nc1ccnc(C(F)(F)F)c1)c1cnn(-c2cccc3c(=O)[nH]ccc23)c1C(F)(F)F 79.7

###

Test: Oral bioavailability, 5 mg/kg solution in PEG400
Type: in vivo, mice, rats, dogs, and monkeys
Settings: beagle, dog, plasma; dogs, oral 5 mg/kg
Property: bioavailability (%)
Numeric answer only, unit % assumed.

Supply bioavailability value. Item: O=C(Nc1ccnc(C(F)(F)F)c1)c1cnn(-c2cccc3c(=O)[nH]ccc23)c1C(F)(F)F [Compound A] 100

###

Assay: FIH study 67856633LYM1001 plasma pharmacokinetics
Type: in vivo, human
Conditions: human, plasma, oral, 50 mg, Cycle 1 Day 1, 50 mg capsule, cohort 50 mg; mean; read-out: Cmax
Property: Cmax (ng/mL)
Response body: numeric value in ng/mL, unit text excluded.

Please supply the value of reported Cmax for the item O=C(Nc1ccnc(C(F)(F)F)c1)c1cnn(-c2cccc3c(=O)[nH]ccc23)c1C(F)(F)F 1600

###

Test: Single oral dose plasma PK in fasted dogs
Assay type: in vivo, dog
Conditions: beagle, dog, plasma, po, 20 mg/kg, 20 mg/kg PO, 0.5% HPMC suspension, Study 4
Text: With the suspension formulation the double-peak phenomenon is even more pronounced. As observed in rats, dose escalation in dogs resulting in proportional or dose-related exposure with the PEG400 solution was unsuccessful in identifying a vehicle suitable for toxicology studies.
Property: bioavailability

Please report the measured bioavailability for O=C(Nc1ccnc(C(F)(F)F)c1)c1cnn(-c2cccc3c(=O)[nH]ccc23)c1C(F)(F)F 7 to 89%

###

Experiment: Single IV dose plasma PK
Type: in vivo, monkey
Settings: male, plasma; Monkey, cynomolgus, 3M, 1 mg/kg IV in 70% PEG400; mean; read-out: Vdss
Protocol: Single intravenous (IV) dose PK was conducted in mice (two strains), rats, monkeys, and dogs at a dose of 1 mg/kg in 70% PEG400 (PEG400/water 70:30) by bolus injection. The time course for plasma sample was optimized to fully characterize the disposition profile in each species. PK analysis was by non-compartmental method.
Property: Vd (L/kg)
Expressed in L/kg, but write only the number.

Give Vd for the following compound: O=C(Nc1ccnc(C(F)(F)F)c1)c1cnn(-c2cccc3c(=O)[nH]ccc23)c1C(F)(F)F [Compound A] 0.748

###

Experiment: FIH study 67856633LYM1001 plasma pharmacokinetics
Assay type: in vivo, human
Details: human, plasma, oral, Cycle 2 Day 1, cohort 8 × 50 mg > 6 × 50 mg, with Subject 100070 data included; read-out: mean AUC
Property: AUC (µg·h/mL)
Reply numerically in µg·h/mL, unit not repeated.

Answer with the recorded AUC for the compound listed here: O=C(Nc1ccnc(C(F)(F)F)c1)c1cnn(-c2cccc3c(=O)[nH]ccc23)c1C(F)(F)F 1810

###

Test: FIH study 67856633LYM1001 plasma pharmacokinetics
Assay type: in vivo, human
Conditions: human, plasma, oral, Cycle 2 Day 1, cohort 8 × 50 mg > 6 × 50 mg (400 mg QD loading 14 days then 300 mg QD), Subject 100070 excluded; mean; read-out: Cmax
Property: Cmax (µg/mL)
Quick reminder: number only, in µg/mL, skip the unit.

Tell me measured Cmax for O=C(Nc1ccnc(C(F)(F)F)c1)c1cnn(-c2cccc3c(=O)[nH]ccc23)c1C(F)(F)F please. 72.2

###

Test: Single oral dose plasma PK in fasted dogs
Assay type: in vivo, dog
Conditions: female, beagle, dog, plasma, po, 280 mg/kg, 2F, 280 mg/kg PO, PEG400/PVP VA 90:10 solution, Study 7
From the text: With the suspension formulation the double-peak phenomenon is even more pronounced. As observed in rats, dose escalation in dogs resulting in proportional or dose-related exposure with the PEG400 solution was unsuccessful in identifying a vehicle suitable for toxicology studies.
Property: Cmax (µg/mL)
Please reply with the bare figure in µg/mL and do not write the unit itself.

Tell me Cmax reported for O=C(Nc1ccnc(C(F)(F)F)c1)c1cnn(-c2cccc3c(=O)[nH]ccc23)c1C(F)(F)F 106
